test-system: HDAC8 (Homo sapiens (Human), UniProt Q9BY41)
Sequence (Q9BY41 whole entry): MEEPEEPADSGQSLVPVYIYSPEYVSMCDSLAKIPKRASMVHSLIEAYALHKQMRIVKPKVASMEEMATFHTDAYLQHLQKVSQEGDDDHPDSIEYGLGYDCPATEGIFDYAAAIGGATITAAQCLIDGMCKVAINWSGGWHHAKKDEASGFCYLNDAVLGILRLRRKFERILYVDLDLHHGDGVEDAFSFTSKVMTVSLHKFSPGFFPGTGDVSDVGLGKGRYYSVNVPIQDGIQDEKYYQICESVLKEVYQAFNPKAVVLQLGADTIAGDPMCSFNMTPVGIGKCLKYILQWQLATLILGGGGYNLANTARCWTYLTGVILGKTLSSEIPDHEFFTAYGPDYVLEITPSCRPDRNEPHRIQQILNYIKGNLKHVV
pIC50: −log10 of the molar value.
assay-endpoint: pIC50

>>> measured_value("CC(=O)N1CCC(CNCc2ccc(-c3noc(C(F)(F)F)n3)cn2)CC1 [Example 455]")
5.42
>>> measured_value("Cc1cc(=O)n2c(n1)CN(c1ccc(-c3noc(C(F)(F)F)n3)cn1)CC2 [Example 158]")
6.12
>>> measured_value("FC(F)(F)c1nc(-c2ccc(CNc3cnccn3)nc2)no1 [Example 368]")
6.05
>>> measured_value("FC(COc1cc(-c2noc(C(F)(F)F)n2)ccn1)CN1CCOCC1 (racemic) [Example 427]")
6.00
>>> measured_value("CC1(C)CCCCN1C(=O)[C@@H]1CCC(=O)N1c1ccc(-c2noc(C(F)(F)F)n2)c(F)c1 [Example 343]")
4.60
>>> measured_value("CCN1CCCC(C(=O)N(Cc2ccc(-c3noc(C(F)(F)F)n3)cn2)c2cccc(F)c2)C1 (racemic) [Example 57]")
5.70
>>> measured_value("CN1Cc2ccc(NCc3ccc(-c4noc(C(F)(F)F)n4)cn3)cc2C1=O [Example 356]")
6.28
>>> measured_value("CNc1ccccc1NC(=O)[C@@H]1CCC(=O)N1c1ccc(-c2noc(C(F)(F)F)n2)cc1 [Example 109]")
5.64
